molecular target: Fas on the cell surface of human cell lines (MOLT-4, CESS, T47D) (human, UniProt P25445); assay: cell-based or functional assay
Would you please tag the item yes when its % apoptotic cells, CESS is 80 % apoptotic cells or above, and no when it is below?

Recorded results for 4 binders are shown here.
binder | assigned.class
HuABL364 Ig-FasL5 M229A (other) heavy (part 1 of 2): EVQLLESGGGLVQPGGSLRLSCAASGFTFSDYYMYWVRQAPEKRLEWVAYISNGGGSSHYVDSVKGRFTISRDNAKNTLYLQMNSLRAEDTALYHCARGMDYGAWFAYWGQGTLVTVSS heavy (part 2 of 2): GTGHPSPPPEKKELRKVAHLTGKSNSRSMPLEWEDTYGIVLLSGVKYKKGGLVINETGLYFVYSKVYFRGQSCNNLPLSHKVYMRNSKYPQDLVMMEGKAMSYCTTGQMWARSSYLGAVFNLTSADHLYVNVSELSLVNFEESQTFFGLYKL light: DIVMTQSPLSLPVTPGEPASISCRSSQSIVHSNGNTYLEWYLQKPGQSPQLLISKVSNRFSGVPDRFSGSGSGTDFTLKISRVEAEDVGVYYCFQGSHVPFTFGQGTKLEIK | yes
HuABL364 Ig-FasL5 Y189A (other) heavy (part 1 of 2): EVQLLESGGGLVQPGGSLRLSCAASGFTFSDYYMYWVRQAPEKRLEWVAYISNGGGSSHYVDSVKGRFTISRDNAKNTLYLQMNSLRAEDTALYHCARGMDYGAWFAYWGQGTLVTVSS heavy (part 2 of 2): GTGHPSPPPEKKELRKVAHLTGKSNSRSMPLEWEDTYGIVLLSGVKYKKGGLVINETGLAFVYSKVYFRGQSCNNLPLSHKVYMRNSKYPQDLVMMEGKMMSYCTTGQMWARSSYLGAVFNLTSADHLYVNVSELSLVNFEESQTFFGLYKL light: DIVMTQSPLSLPVTPGEPASISCRSSQSIVHSNGNTYLEWYLQKPGQSPQLLISKVSNRFSGVPDRFSGSGSGTDFTLKISRVEAEDVGVYYCFQGSHVPFTFGQGTKLEIK | no
HuABL364 Ig-FasL5 Y232A (other) heavy (part 1 of 2): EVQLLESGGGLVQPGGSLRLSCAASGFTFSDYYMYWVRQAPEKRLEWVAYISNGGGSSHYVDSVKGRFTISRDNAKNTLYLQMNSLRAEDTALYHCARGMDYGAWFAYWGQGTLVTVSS heavy (part 2 of 2): GTGHPSPPPEKKELRKVAHLTGKSNSRSMPLEWEDTYGIVLLSGVKYKKGGLVINETGLYFVYSKVYFRGQSCNNLPLSHKVYMRNSKYPQDLVMMEGKMMSACTTGQMWARSSYLGAVFNLTSADHLYVNVSELSLVNFEESQTFFGLYKL light: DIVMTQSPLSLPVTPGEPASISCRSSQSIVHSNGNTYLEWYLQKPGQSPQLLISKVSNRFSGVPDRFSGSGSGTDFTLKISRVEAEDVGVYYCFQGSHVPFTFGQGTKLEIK | no
HuABL364 Ig-FasL5 V248A (other) heavy (part 1 of 2): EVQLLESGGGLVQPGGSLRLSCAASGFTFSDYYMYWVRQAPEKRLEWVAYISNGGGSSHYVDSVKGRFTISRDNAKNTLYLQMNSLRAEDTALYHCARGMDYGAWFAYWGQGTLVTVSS heavy (part 2 of 2): GTGHPSPPPEKKELRKVAHLTGKSNSRSMPLEWEDTYGIVLLSGVKYKKGGLVINETGLYFVYSKVYFRGQSCNNLPLSHKVYMRNSKYPQDLVMMEGKMMSYCTTGQMWARSSYLGAAFNLTSADHLYVNVSELSLVNFEESQTFFGLYKL light: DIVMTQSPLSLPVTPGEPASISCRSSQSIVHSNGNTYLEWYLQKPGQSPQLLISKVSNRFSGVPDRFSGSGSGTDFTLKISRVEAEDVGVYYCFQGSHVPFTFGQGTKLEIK | yes

Now let's try a different one.
Is % apoptotic cells, CESS at least 80 % apoptotic cells? Consider HuABL364 Ig-FasL5 Y244A (other) heavy (part 1 of 2): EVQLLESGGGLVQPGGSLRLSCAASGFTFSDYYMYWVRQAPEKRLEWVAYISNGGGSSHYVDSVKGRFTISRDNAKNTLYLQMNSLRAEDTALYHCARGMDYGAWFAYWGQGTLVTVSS heavy (part 2 of 2): GTGHPSPPPEKKELRKVAHLTGKSNSRSMPLEWEDTYGIVLLSGVKYKKGGLVINETGLYFVYSKVYFRGQSCNNLPLSHKVYMRNSKYPQDLVMMEGKMMSYCTTGQMWARSSALGAVFNLTSADHLYVNVSELSLVNFEESQTFFGLYKL light: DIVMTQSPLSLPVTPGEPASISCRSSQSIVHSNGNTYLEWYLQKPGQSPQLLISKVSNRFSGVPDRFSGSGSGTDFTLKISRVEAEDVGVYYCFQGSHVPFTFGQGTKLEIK no
